- TESTED_ON: SfurOBP2 (Sogatella furcifera, UniProt V5T759)
- Sequence (V5T759 entry or part of it): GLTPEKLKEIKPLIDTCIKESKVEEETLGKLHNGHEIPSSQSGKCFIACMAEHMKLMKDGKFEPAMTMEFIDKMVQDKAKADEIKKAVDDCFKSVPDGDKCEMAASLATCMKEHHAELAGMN
- METHOD_SUMMARY: biochemical
- Format: binding
- RECORDED_CONDITIONS: ligand concentration 6 (unit not given), replicate column 2 of 3
What Fluorescence competitive binding assay, OBP2 (raw fluorescence reading) was measured for each of the following?
# output: bare number, no unit

Query string: State the recorded Fluorescence competitive binding assay, OBP2 (raw fluorescence reading) for this entry: `OC1CCCCC1`
Result string: 19185

Query string: Same thing, different compound: `CCCCCC(C)=O`
Result string: 18530

Query string: Same thing, different compound: `C/C(=C\CO)CCC[C@H](C)CCC[C@H](C)CCCC(C)C`
Result string: 15243

Query string: Same thing, different compound: `O=C(c1ccccc1)c1ccccc1`
Result string: 16241

Query string: Same thing, different compound: `CCCCCCCC=O`
Result string: 19512

Query string: Same thing, different compound: CCCCCCCCCCCCCCCC(=O)OC [MH(methyl hexadecanoate)]
Result string: 38065

----------
What Fluorescence competitive binding assay, OBP2 (raw fluorescence reading) was measured for each of the following?
- TESTED_ON: UniProt V5T759
- METHOD_SUMMARY: biochemical
- Assay type: binding
- RECORDED_CONDITIONS: ligand concentration 8 (unit not given), replicate column 3 of 3
# output: bare number, no unit

Query string: State the recorded Fluorescence competitive binding assay, OBP2 (raw fluorescence reading) for this entry: `CCCCCCCCCCCCCC`
Result string: 20694

Query string: Same thing, different compound: `CCCCCCCCCCCCC=O`
Result string: 16289

Query string: Same thing, different compound: `CC(=O)c1ccccc1`
Result string: 17007

Query string: Same thing, different compound: `O=C(c1ccccc1)c1ccccc1`
Result string: 15131

Query string: Same thing, different compound: `O=Cc1ccccc1`
Result string: 14449

Query string: Same thing, different compound: `CCCCCC=O`
Result string: 19094

Query string: Same thing, different compound: `C=C/C(C)=C/C/C=C(\C)CCC=C(C)C`
Result string: 18059

Query string: Same thing, different compound: `CCCCCCCCCCC`
Result string: 13901

Query string: Same thing, different compound: `CCCCCCCCCCCCCCCCCC`
Result string: 22654

Query string: Same thing, different compound: `CC(=O)/C=C/C1=C(C)CCCC1(C)C`
Result string: 16731

Query string: Same thing, different compound: `CCCCCC(C)=O`
Result string: 17932

Query string: Same thing, different compound: C=CC(C)(O)CCC=C(C)CCC=C(C)C (mixture of isomers)
Result string: 14632

Query string: Same thing, different compound: `C=C1CC/C=C(\C)CC[C@@H]2[C@@H]1CC2(C)C`
Result string: 14723

Query string: Same thing, different compound: `CCCCCCCC=O`
Result string: 20463

Query string: Same thing, different compound: `Cc1cc(C(C)(C)C)c(O)c(C(C)(C)C)c1`
Result string: 15572

Query string: Same thing, different compound: `CCCCCCCCCCCCCCCCCCC`
Result string: 23266

Query string: Same thing, different compound: `OC1CCCCC1`
Result string: 18381

Query string: Same thing, different compound: C=C(C)C1CC=C(C)CC1 (single isomer, unassigned; (+)) [(+)-limonene]
Result string: 17474

Query string: Same thing, different compound: `COC(=O)c1ccccc1`
Result string: 18155

Query string: Same thing, different compound: `CCCCCCCC`
Result string: 16014

Query string: Same thing, different compound: `CCCCCCC=CCO`
Result string: 21248

Query string: Same thing, different compound: CC(C)COC(=O)CCCCC(=O)OCC(C)C [DA(diisobutyl adipate)]
Result string: 16908

Query string: Same thing, different compound: `CC1=CC[C@@H](C(C)(C)O)CC1`
Result string: 17959

Query string: Same thing, different compound: `C[C@@H]1CC[C@H]2C(C)(C)[C@H]3C[C@@]12CC[C@@]3(C)O`
Result string: 25979

Query string: Same thing, different compound: `c1ccc2ccccc2c1`
Result string: 20781

Query string: Same thing, different compound: CC/C=C\CCO [(Z)-3-hexenol]
Result string: 16878

Query string: Same thing, different compound: `CCCCCCCCCCCCCCCC`
Result string: 14572

Query string: Same thing, different compound: `CCCCCCCCCCCCO`
Result string: 14953

Query string: Same thing, different compound: `CCCCCCCCCCOCCCCCCCCCC`
Result string: 37763

Query string: Same thing, different compound: `CCCCCCCCC=O`
Result string: 19166

Query string: Same thing, different compound: CCC/C=C/CO [(E)-2-hexenol]
Result string: 16125

Query string: Same thing, different compound: C=CC(C)(O)CCC=C(C)C (centres unmarked)
Result string: 19018

Query string: Same thing, different compound: `C/C(=C\CO)CCC[C@H](C)CCC[C@H](C)CCCC(C)C`
Result string: 17103

Query string: Same thing, different compound: `Cc1ccc(C(C)C)cc1`
Result string: 16495

Query string: Same thing, different compound: CCCCCCCCCCCCCCCC(=O)OC [MH(methyl hexadecanoate)]
Result string: 42977
